Test system: OVCAR-4 ovarian
Experiment: NCI-60 one-dose screen, 48 h (100 = growth as untreated, 0 = no growth, -100 = all killed)
Conditions: 10 µM unless noted
The panel holds about 83,000 compounds, 20% with a hit somewhere; the sample as a whole holds those more often.
READOUT_LABEL: growth (%)
Answers are plain numbers, in %.

Sample records with growth:
# STRUCTURE_NOTATION, TGT, UNIT_ABBREV, growth
measured = [
    ("CCOC(=O)c1cc(C(=O)c2cc(OC)cc(OC)c2)n2ccccc12", "OVCAR-4 ovarian", "%", 72.4),
    ("CN(C)c1ccc(/C=C/C2=[N+](C)c3ccccc3C2(C)C)cc1", "OVCAR-4 ovarian", "%", 31.2),
    ("O=c1ccc2nc(-c3ccccc3)nn(-c3ccccn3)c-2c1", "OVCAR-4 ovarian", "%", 83.5),
]

Could you tell me growth for each of these molecules? They are listed below.
1. CCCS(=O)(=O)Nc1cccc(Nc2ncnc3cc(NC(=O)CCl)ccc23)c1Cl
2. CCOc1cc(\C=N/N=C(N)/C(N)=N\N=C/c2ccc(O)c(OCC)c2)ccc1O
3. CCOc1ccc(N2C(=O)CCSC2=S)cc1

Ans.
1: -38.3; 2: 105; 3: 109

----------
Would you kindly list growth for each of these molecules?
System: SR leukemia
Test: NCI-60 one-dose screen, 48 h (100 = growth as untreated, 0 = no growth, -100 = all killed)
Details: 10 µM unless noted
The panel holds about 83,000 compounds, 20% with a hit somewhere; the sample as a whole holds those more often.
Numbers only, in %.

Sample records with growth:
# MOLECULE, EXPERIMENTAL_VALUE
rows = [
    ("O=c1c(Cc2ccc(F)cc2)cc(-c2ccccc2)nn1C/C(=N/O)c1ccccc1", 30.3),
    ("CCOC(=O)C1=C(c2ccccc2)N=C2SC=C(c3cccc([N+](=O)[O-])c3)N2C1c1ccc(O)cc1 (stereo not given)", 109),
    ("CC1=NC(=S)NC(c2ccccc2)/C1=C1/CC(c2ccccc2O)NN1 (stereo not given)", 97.8),
]

Could you tell me growth for each of these molecules? They are listed below.
1. CCCCN(CCC#N)C(N)=O
2. O=C1NC(=O)C(=Cc2cc(-c3ccc(Cl)cc3)n(-c3ccccc3)n2)C(=O)N1

Ans.
130
93.7

----------
System: OVCAR-3 ovarian
Test: NCI-60 one-dose screen, 48 h (100 = growth as untreated, 0 = no growth, -100 = all killed)
Details: 10 µM unless noted
Procedure: Growth inhibition of the OVCAR-3 human tumor cell line is measured as a screen for anti-cancer activity. Cells are grown in 96 well plates and exposed to the test compound for 48 hours. Compounds are tested at a single concentration, which is 10^-5 M for most compounds. The reported endpoint is percent growth (GI% or GIPRCNT), where numbers from 0 - 100% represent growth inhibition, and numbers from -100% - 0 represent cell death. For example, a value of 40 represents 60% growth inhibition. […]
The panel holds about 83,000 compounds, 20% with a hit somewhere; the sample as a whole holds those more often.
Would you kindly list growth for each of these compounds?
Answers are plain numbers, in %.

# COMPOUND, growth [%]
rows = [
    ("Cn1cc(-c2ccc3occ(-c4cccc(-c5ccncc5)c4)c3n2)cn1", 18.4),
    ("C/C=C(/C)C(=O)O[C@@H]1CC(C)(C)CC2C34OC(=O)[C@@]21CC[C@@]3(C)[C@]1(C)CCC2C(C)(C)C(=O)CC[C@]2(C)C1C[C@@H]4O (some centres undefined)", 73.7),
    ("COC(=O)c1nc(-c2ccccc2)oc1S(=O)(=O)N1CCN(c2ccc(OC)cc2)CC1", 45.4),
    ("COc1ccc(Cn2cc3c(c2)-c2oncc2CC3)cc1", 108),
    ("Nc1ncc(-c2ccc3ncnc(N4CCc5cc(F)c(Cl)cc54)c3c2)cc1C(F)(F)F", 31.7),
]

Could you tell me growth for each of these compounds? They are listed below.
1. C=C1/C(=C\C=C2/CCC[C@]3(C)[C@@H]([C@H](C)CCCC(C)(C)O)CC[C@@H]23)C[C@@H](OC(=O)CBr)C[C@@H]1O
2. C=CCn1c(SCC(=O)Nc2ccc(C(=O)/C=C/c3cc(OC)c(OC)c(OC)c3)cc2)nnc1-c1cc(-c2ccc(S(N)(=O)=O)cc2)nc2ccccc12

Ans.
[-20.1, 81.1]
